- Test system: Fibroblast
- PROTOCOL TEXT: Multiplex assay against human fibroblast
- Assay type: toxicity, cell-based
- CONDITION INFO: 24 h, 10 µM, compound concentration 10 uM, replicate 1
MEASURED PROPERTY: Population Apoptotic (%)

>>> value("CN1CCC[C@@H]1CCO[C@](C)(c1ccccc1)c1ccc(Cl)cc1.O=C(O)/C=C/C(=O)O [CLEMASTINE FUMARATE]")
78
>>> value("CN1CCCC(n2nc(Cc3ccc(Cl)cc3)c3ccccc3c2=O)CC1.Cl (stereo not drawn) [AZELASTINE HYDROCHLORIDE]")
84
>>> value("COc1cc(-n2cnc3cc(-c4ccc(Cl)cc4)sc3c2=O)ccc1OCCN1CCCC1")
92

---

- System: HEK-293T
- PROTOCOL TEXT: Incucyte cell viability with HEK293T; note: filed as whole numbers so only -1 and 0 and 1 occur
- Type: toxicity, cell-based
- CONDITION INFO: human, 12 h, 10 µM, compound concentration 10 uM, replicate number 1, timepoint 12 hours
// values below are reported Growth Rate
MEASURED PROPERTY: Growth Rate

>>> value("CN1CCC[C@@H]1CCO[C@](C)(c1ccccc1)c1ccc(Cl)cc1.O=C(O)/C=C/C(=O)O [CLEMASTINE FUMARATE]")
0
>>> value("CC(C)(O)CNc1ncc(-c2ccnc(Nc3ccnc(Cl)c3)n2)c(CC2CC2)n1")
0
>>> value("COc1ccc2cc(OCC3(C(=O)O)CN(C(=O)c4ccc(F)cc4)C3)ccc2c1")
1
>>> value("C[C@@]1(Cc2ccc(C#N)cc2)C(=O)N(c2cc(Cl)cc(Cl)c2)c2ncc(C(=O)NC3(c4nc(C5CCC5)no4)CC3)n21")
0
>>> value("O=C(NCc1ncc(C(F)(F)F)cc1Cl)c1ccc2c(c1)C1(CCS(=O)(=O)CC1)[C@H](C1CC1)N2S(=O)(=O)c1ccc(F)cc1")
1
>>> value("CNc1nc(NCc2ccc(NS(C)(=O)=O)cc2Cl)cc(-c2ccccn2)n1")
0
>>> value("CCN(CC)CCCCNc1ncc2cc(-c3cc(OC)cc(OC)c3)c(NC(=O)NC(C)(C)C)nc2n1")
0
>>> value("C=CC(=O)Nc1cccc(C(=O)Nc2ccc(Nc3cc(-c4[nH]c(SC)nc4C)ccn3)cc2)c1")
0
>>> value("CC(C)NCC(O)COc1ccc(CCOCC2CC2)cc1.Cl (stereo not given) [BETAXOLOL HYDROCHLORIDE]")
0
>>> value("CN(C)C(=O)N[C@H]1CC[C@H](CCN2CCN(c3cccc(Cl)c3Cl)CC2)CC1.Cl [CARIPRAZINE HYDROCHLORIDE]")
0
>>> value("C[C@H](c1ccc(F)cc1)N(Cc1ccc(Cl)c(C(=O)O)c1)C(=O)c1cnc2ccccc2c1")
0
>>> value("C[C@H](Cc1cc2c(c(C(N)=O)c1)N(CCCO)CC2)NCCOc1ccccc1OCC(F)(F)F")
0
>>> value("COc1ccc(CNC(=O)c2cc(-c3cncc(Cl)c3)cnc2-c2ccccn2)nc1OC")
1
>>> value("COc1ccc(C2(O)OC(=O)C(c3ccc4c(c3)OCO4)=C2Cc2cc(OC)c(OC)c(OC)c2)cc1 (stereo not given)")
1
>>> value("O=C(NCc1ccccc1)c1ccc(S(=O)(=O)NCc2ccccc2)cc1")
1

---

// values below are reported Population Healthy Nuclei (%)
- Test system: Fibroblast
- PROTOCOL TEXT: Multiplex assay against human fibroblast
- Assay type: toxicity, cell-based
- CONDITION INFO: 24 h, 10 µM, compound concentration 10 uM, replicate 1
MEASURED PROPERTY: Population Healthy Nuclei (%)

>>> value("C=CC(=O)Nc1ccc2ncnc(Nc3ccc(OCc4cccc(F)c4)c(Cl)c3)c2c1.Cc1ccc(S(=O)(=O)O)cc1")
39
>>> value("CCN(CC)CCCCNc1ncc2cc(-c3cc(OC)cc(OC)c3)c(NC(=O)NC(C)(C)C)nc2n1")
39
>>> value("COc1cc2nccc(Oc3ccc(NC(=O)Nc4cc(C)on4)c(Cl)c3)c2cc1OC.O")
40

---

- Test system: U2OS
- PROTOCOL TEXT: Multiplex assay against U2OS
- Assay type: toxicity, cell-based
- CONDITION INFO: human, 24 h, 10 µM, compound concentration 10 uM, replicate 1
MEASURED PROPERTY: Population Mitotic Cells (%)

>>> value("Cc1nc(Nc2n[nH]c3c2CN(C(=O)N[C@H](CN(C)C)c2ccccc2)C3(C)C)c2sccc2n1")
21
>>> value("CN1CCN(c2ccc(OC(F)(F)F)c(Nc3ncc4c(n3)-c3c(c(C(N)=O)nn3CCO)CC4)c2)CC1")
17
>>> value("Cc1csc2c(N[C@@H](C)CN3CCN(S(=O)(=O)c4ccc(Cl)c(Cl)c4)CC3)ncnc12")
4
>>> value("CC(C)(O)CNc1ncc(-c2ccnc(Nc3ccnc(Cl)c3)n2)c(CC2CC2)n1")
47
>>> value("Cc1[nH]c(/C=C2\\C(=O)Nc3ccc(S(=O)(=O)N(C)c4cccc(Cl)c4)cc32)c(C)c1C(=O)N1CCN(C)CC1")
17
>>> value("CN(C)C(=O)N[C@H]1CC[C@H](CCN2CCN(c3cccc(Cl)c3Cl)CC2)CC1.Cl [CARIPRAZINE HYDROCHLORIDE]")
42
>>> value("CNc1nc(NCc2ccc(NS(C)(=O)=O)cc2Cl)cc(-c2ccccn2)n1")
47
>>> value("COc1cccc([C@@H](C)NCCCc2ccccc2Cl)c1.Cl [TECALCET HYDROCHLORIDE]")
50
>>> value("CCN(CC)CCCCNc1ncc2cc(-c3cc(OC)cc(OC)c3)c(NC(=O)NC(C)(C)C)nc2n1")
64
>>> value("C[C@@H](NCCCc1cccc(C(F)(F)F)c1)c1cccc2ccccc12.Cl [CINACALCET HYDROCHLORIDE]")
28

---

- Tested on: Fibroblast
- PROTOCOL TEXT: Multiplex assay against human fibroblast
- Format: toxicity, cell-based
- CONDITION INFO: 24 h, 10 µM, compound concentration 10 uM, replicate 1
MEASURED PROPERTY: Population Normal (%)

>>> value("Cc1nc(Nc2n[nH]c3c2CN(C(=O)N[C@H](CN(C)C)c2ccccc2)C3(C)C)c2sccc2n1")
"79%"
>>> value("CC(C)(O)CNc1ncc(-c2ccnc(Nc3ccnc(Cl)c3)n2)c(CC2CC2)n1")
"91%"
>>> value("CN1CCN(c2ccc(OC(F)(F)F)c(Nc3ncc4c(n3)-c3c(c(C(N)=O)nn3CCO)CC4)c2)CC1")
"81%"

---

// values below are reported Population Hoechst High Intensity Objects (%)
- System: U2OS
- PROTOCOL TEXT: Multiplex assay against U2OS
- Type: toxicity, cell-based
- CONDITION INFO: human, 24 h, 1 µM, compound concentration 1 uM, replicate 1
MEASURED PROPERTY: Population Hoechst High Intensity Objects (%)

>>> value("Cl.N#Cc1ccc2[nH]cc(CCCCN3CCN(c4ccc5oc(C(N)=O)cc5c4)CC3)c2c1 [VILAZODONE HYDROCHLORIDE]")
"7%"
>>> value("O=C1NCN(c2ccccc2)C12CCN(CCCOc1ccc(F)cc1)CC2 [SPIRAMIDE]")
"7%"
>>> value("CN1CCN(c2ccc(OC(F)(F)F)c(Nc3ncc4c(n3)-c3c(c(C(N)=O)nn3CCO)CC4)c2)CC1")
"7%"

---

- Test system: U2OS
- PROTOCOL TEXT: Multiplex assay against U2OS
- Format: toxicity, cell-based
- CONDITION INFO: human, 24 h, 10 µM, compound concentration 10 uM, replicate 1
MEASURED PROPERTY: Population Normal (%)

>>> value("CNc1nc(NCc2ccc(NS(C)(=O)=O)cc2Cl)cc(-c2ccccn2)n1")
91
>>> value("Cc1nc(-c2ccc(-c3ccc(C(=O)N4CCc5cc6c(cc54)C4(CCN(C)CC4)CO6)cc3)c(C)c2)no1 [SB-224289]")
90
>>> value("CN1CCN(CCOc2cc(OC3CCOCC3)c3c(Nc4c(Cl)ccc5c4OCO5)ncnc3c2)CC1 [SARACATINIB]")
94
>>> value("C=CC(=O)Nc1cc2c(Nc3ccc(F)c(Cl)c3)ncnc2cc1OCCCN1CCOCC1.Cl.Cl [CANERTINIB DIHYDROCHLORIDE]")
96
>>> value("O=C1NCN(c2ccccc2)C12CCN(CCCOc1ccc(F)cc1)CC2 [SPIRAMIDE]")
91

---

- System: U2OS
- PROTOCOL TEXT: Multiplex assay against U2OS
- Assay type: toxicity, cell-based
- CONDITION INFO: human, 12 h, 10 µM, compound concentration 10 uM, replicate 2
MEASURED PROPERTY: Population Healthy Nuclei (%)

>>> value("CN1CCCC(n2nc(Cc3ccc(Cl)cc3)c3ccccc3c2=O)CC1.Cl (stereo unspecified) [AZELASTINE HYDROCHLORIDE]")
70
>>> value("CN(C)C(=O)N[C@H]1CC[C@H](CCN2CCN(c3cccc(Cl)c3Cl)CC2)CC1.Cl [CARIPRAZINE HYDROCHLORIDE]")
57
>>> value("CN1CCN(CCOc2cc(OC3CCOCC3)c3c(Nc4c(Cl)ccc5c4OCO5)ncnc3c2)CC1 [SARACATINIB]")
71
>>> value("Cc1nc(-c2cn3c(n2)-c2ccc(-c4cnn(C(C)(C)C(N)=O)c4)cc2OCC3)n(C(C)C)n1 [TASELISIB]")
78
>>> value("CN1CCN(c2ccc(OC(F)(F)F)c(Nc3ncc4c(n3)-c3c(c(C(N)=O)nn3CCO)CC4)c2)CC1 [ONVANSERTIB]")
78
>>> value("Cc1[nH]c(/C=C2\\C(=O)Nc3ccc(S(=O)(=O)N(C)c4cccc(Cl)c4)cc32)c(C)c1C(=O)N1CCN(C)CC1")
74
>>> value("CC(C)NCC(O)COc1ccc(CCOCC2CC2)cc1.Cl (stereo unspecified) [BETAXOLOL HYDROCHLORIDE]")
77
>>> value("O=C1NCN(c2ccccc2)C12CCN(CCCOc1ccc(F)cc1)CC2 [SPIRAMIDE]")
88
>>> value("COc1ncc(-c2ccc3nccc(-c4ccnnc4)c3c2)cc1NS(=O)(=O)c1ccc(F)cc1F [OMIPALISIB]")
27
>>> value("OC1(c2ccc(Cl)cc2)CCN(Cc2c[nH]c3ccccc23)CC1")
38
>>> value("CCN(CC)CCCCNc1ncc2cc(-c3cc(OC)cc(OC)c3)c(NC(=O)NC(C)(C)C)nc2n1 [PD-173074]")
34
>>> value("Cl.N#Cc1ccc2[nH]cc(CCCCN3CCN(c4ccc5oc(C(N)=O)cc5c4)CC3)c2c1 [VILAZODONE HYDROCHLORIDE]")
14
>>> value("CC[C@H](C)C(=O)O[C@H]1C[C@@H](C)C=C2C=C[C@H](C)[C@H](CC[C@@H]3C[C@@H](O)CC(=O)O3)[C@H]21 [LOVASTATIN]")
90
>>> value("Cn1cc(-c2[nH]c3cc(NC(=O)[C@H](N)C4CCCCC4)cc4c3c2C=NNC4=O)cn1")
42
>>> value("Cc1csc2c(N[C@@H](C)CN3CCN(S(=O)(=O)c4ccc(Cl)c(Cl)c4)CC3)ncnc12")
67
>>> value("CNc1nc(NCc2ccc(NS(C)(=O)=O)cc2Cl)cc(-c2ccccn2)n1")
81

// data source = ChEMBL document CHEMBL4689842
